system: mESC line R1; assay: Dose response assay (PrestoBlue) on murine ESC line R1; format: cell-based; details: 48 h of treatment; mean ± SEE; n = 4-20
REPORTED PROPERTY: pIC50
Lab note — pIC50 values are minus log10 of concentrations in M.

Oc1c(CNC2CCCC[C@@H]2NCc2cccc(-c3ccccc3)c2O)cccc1-c1ccccc1 (some centres unmarked) [SM1]    6.24

// sample Oc1c(CNC2CCCC[C@@H]2NCc2cccc(-c3ccccc3)c2O)cccc1-c1ccccc1 (some centres unmarked) [SM8] , its pIC50 was 6.59

###

The reader will find reported cytotoxicity at 72 h, 10 μM values listed item by item below.
experiment: Cell viability (PrestoBlue) of miPSC-derived cardiomyocytes; format: cell-based, murine; conditions: mouse, αPIG-AT25 miPSC-derived cardiomyocytes (puromycin-selected); 10 μM, 72 h of exposure; read-out: decrease of cardiomyocyte viability, in average over SM1, SM4 and SM8
Answer format: numeric, % implied, no suffix.

Oc1c(CNC2CCCC[C@@H]2NCc2cccc(-c3ccccc3)c2O)cccc1-c1ccccc1 (some centres unmarked)    79.8

From here, focus on the item given below.
// sample `Oc1c(CN[C@@H]2CCCC[C@H]2NCc2cccc(-c3ccccc3)c2O)cccc1-c1ccccc1` , its cytotoxicity at 72 h, 10 μM was 79.8
